- Tested on: MV4-11
- experimental-protocol: CellTox Green cytotoxicity fluorescence relative to DMSO vehicle (fold of vehicle RFU); higher = more cell death (loss of membrane integrity), active = 2 or more
- study-conditions: 1 µM; 72 h
observation-type: CellTox Green cytotoxicity fluorescence

The examples below pair each entry with its known result.
* CN[C@@H](C)C(=O)N[C@H](C(=O)N1CCC[C@H]1c1nc(C(=O)c2ccc(F)cc2)cs1)C1CCCCC1 | 1.03 (inactive)
* CC(C)c1cc2c(N3CCN(C4=NCC(C)(C)S4)CC3)ncnc2s1 | 0.95 (inactive)
* CCN(CC)CCNC(=O)c1c(C)[nH]c(/C=C2\C(=O)Nc3ccc(F)cc32)c1C | 1.72 (inactive)
* CCS(=O)(=O)N1CCN(c2ccc(Nc3ncc(C(N)=O)c(NC4CC4)n3)cc2)CC1 | 1.11 (inactive)

Turning to the following compound.
# CellTox Green cytotoxicity fluorescence lookup, item CC1(C)CCC(c2ccc(Cl)cc2)=C(CN2CCN(c3ccc(C(=O)NS(=O)(=O)c4ccc(N[C@H](CCN5CCOCC5)CSc5ccccc5)c(S(=O)(=O)C(F)(F)F)c4)cc3)CC2)C1 2.63 (active)

----------
- System: CMK
- experimental-protocol: CellTox Green cytotoxicity fluorescence relative to DMSO vehicle (fold of vehicle RFU); higher = more cell death (loss of membrane integrity), active = 2 or more
- study-conditions: 0.1 µM; 48 h
Binary call on CellTox Green cytotoxicity fluorescence: 1 from 1 upward, 0 beneath that.

Solved entries (count: 2):
* CC1(C)CCC(c2ccc(Cl)cc2)=C(CN2CCN(c3ccc(C(=O)NS(=O)(=O)c4ccc(N[C@H](CCN5CCOCC5)CSc5ccccc5)c(S(=O)(=O)C(F)(F)F)c4)cc3)CC2)C1 | 1
* Cc1nc(Nc2ncc(C(=O)Nc3c(C)cccc3Cl)s2)cc(N2CCN(CCO)CC2)n1 [Dasatinib Monohydrate] | 1

Could you verify whether the entry CCCCNc1ncc2c(-c3ccc(CN4CCN(C)CC4)cc3)cn([C@H]3CC[C@H](O)CC3)c2n1 shows CellTox Green cytotoxicity fluorescence of no less than 1? 1

Could you verify whether the entry COc1cc(C(=O)O)ccc1NC(=O)[C@@H]1N[C@@H](CC(C)(C)C)[C@](C#N)(c2ccc(Cl)cc2F)[C@H]1c1cccc(Cl)c1F shows CellTox Green cytotoxicity fluorescence of no less than 1? 0

----------
- Tested on: CMK
- experimental-protocol: CellTox Green cytotoxicity fluorescence relative to DMSO vehicle (fold of vehicle RFU); higher = more cell death (loss of membrane integrity), active = 2 or more
- study-conditions: 0.01 µM; 48 h
Exercise: for every item that follows, state its recorded CellTox Green cytotoxicity fluorescence.
One number for each entry.

The examples below pair each entry with its known result.
* C=CCc1cccc(/C=N/NC(=O)CN2CCN(Cc3ccccc3)CC2)c1O | 0.909
* C=CC(=O)N1CCC(Oc2cc3c(Nc4ccc(Cl)c(Cl)c4F)ncnc3cc2OC)CC1 | 1.01
* Nc1cccc2c1C(=O)N(C1CCC(=O)NC1=O)C2=O (configuration not stated) [Pomalidomide] | 0.988

Hello, I would appreciate it if you could give CellTox Green cytotoxicity fluorescence for each entry below.
1. CCC(CC)n1ccc2c(C(=O)NCc3c(C)cc(C)[nH]c3=O)cc(C#N)cc21
2. O=C1CCC(N2C(=O)c3ccccc3C2=O)C(=O)N1 (configuration not stated) [Thalidomide]

0.767
0.985

Hello, I would appreciate it if you could give CellTox Green cytotoxicity fluorescence for each entry below.
1. CNC(=O)c1ccc(Nc2ncc(C(F)(F)F)c(NCc3nccnc3N(C)S(C)(=O)=O)n2)cc1
2. c1ccc2c(CCNc3ccc(Nc4ccncc4)cc3)c[nH]c2c1

1. 0.942
2. 0.966

----------
- System: CMK
- experimental-protocol: CellTox Green cytotoxicity fluorescence relative to DMSO vehicle (fold of vehicle RFU); higher = more cell death (loss of membrane integrity), active = 2 or more
- study-conditions: 1 µM; 72 h
Exercise: for every item that follows, state its recorded CellTox Green cytotoxicity fluorescence.
One number for each entry.

The examples below pair each entry with its known result.
• CN[C@@H](C)C(=O)N[C@H](C(=O)N1CCC[C@H]1c1nc(C(=O)c2ccc(F)cc2)cs1)C1CCCCC1 = 0.981
• CN1CCN(CCCNc2ncc(Cl)c(-c3cc4c(C(=O)NC5CC5)cccc4s3)n2)CC1 = 1
• Nc1cccc2c1C(=O)N(C1CCC(=O)NC1=O)C2=O (stereo unspecified) [Pomalidomide] = 0.984
• COc1ccc(CCNCc2ccc(OCc3ccc(Cl)nc3)c(OC)c2)cc1OC = 0.996

Hello, I would appreciate it if you could give CellTox Green cytotoxicity fluorescence for each entry below.
1. CCCC[C@@H](C=O)NC(=O)[C@H](CC(C)C)NC(=O)OCc1ccccc1
2. C=CC(=O)N1CCN(C(=O)CNc2cc(I)c(Cl)cc2O)CC1 [K-Ras(G12C) inhibitor 12]
3. Cc1c(C(=O)Nc2ccc(Oc3ccnc4[nH]cc(-c5ccccc5)c34)c(F)c2)c(=O)n(-c2ccc(F)cc2)n1C
4. COc1cccc(-n2c(=O)[nH]c3cc(Cl)n(-c4ccc(-c5cccc(OC)c5O)cc4)c3c2=O)c1
5. CCCCCCCCCCCC1=C(O)C(=O)C=C(O)C1=O

1. 1.01
2. 1.02
3. 1.02
4. 0.832
5. 1.05

Hello, I would appreciate it if you could give CellTox Green cytotoxicity fluorescence for each entry below.
1. CCCCNc1ncc2c(-c3ccc(CN4CCN(C)CC4)cc3)cn([C@H]3CC[C@H](O)CC3)c2n1
2. CC1(C)CCC(c2ccc(Cl)cc2)=C(CN2CCN(c3ccc(C(=O)NS(=O)(=O)c4ccc(N[C@H](CCN5CCOCC5)CSc5ccccc5)c(S(=O)(=O)C(F)(F)F)c4)cc3)CC2)C1
3. CN[C@@H](C)C(=O)N[C@H](C(=O)N1CCC[C@H]1C(=O)Nc1snnc1-c1ccccc1)C1CCCCC1

1. 1.98
2. 2.07
3. 0.959

Hello, I would appreciate it if you could give CellTox Green cytotoxicity fluorescence for each entry below.
1. COC(=O)[C@H](CCSC)NC(=O)c1ccc(NC[C@@H](N)CS)cc1-c1ccccc1
2. O=C(O)CSc1cc(NS(=O)(=O)c2ccc(Br)cc2)c2ccccc2c1O
3. Nc1cccc2c1CN(C1CCC(=O)NC1=O)C2=O (stereo unspecified) [Lenalidomide]
4. N#CC(=Cc1ccc(-c2cc(Cl)ccc2Cl)o1)C(=O)Nc1cccc2ncccc12

1.04
1.03
0.783
1.03

----------
Exercise: for every item that follows, state its recorded CellTox Green cytotoxicity fluorescence.
- Tested on: CMK
- experimental-protocol: CellTox Green cytotoxicity fluorescence relative to DMSO vehicle (fold of vehicle RFU); higher = more cell death (loss of membrane integrity), active = 2 or more
- study-conditions: 1 µM; 48 h

The examples below pair each entry with its known result.
* C/C(=N\NC(=O)c1cccc(S(=O)(=O)N2CCOCC2)c1)c1cc(Cl)ccc1O | 0.907 (inactive)
* CC(C)CC(NC(=O)C(Cc1ccccc1)CC(O)C(Cc1ccccc1)NC(=O)OC(C)(C)C)C(=O)NC(Cc1ccccc1)C(N)=O (stereo not given) | 0.949 (inactive)
* N#CC(=Cc1ccc(-c2cc(Cl)ccc2Cl)o1)C(=O)Nc1cccc2ncccc12 | 1.05 (inactive)
* Fc1ccc(CNc2ncnc3ccc(F)cc23)cc1 [Spautin-1] | 0.967 (inactive)
* CCOc1cc(C(C)(C)C)ccc1C1=N[C@@](C)(c2ccc(Cl)cc2)[C@@](C)(c2ccc(Cl)cc2)N1C(=O)N1CCN(CCCS(C)(=O)=O)CC1 | 1.05 (inactive)

Hello, I would appreciate it if you could give CellTox Green cytotoxicity fluorescence for each entry below.
1. O=C(COc1ccc(Cl)cc1)NC1CCC(NC(=O)COc2ccc(Cl)cc2)CC1 (stereo not given)
2. Nc1cccc2c1C(=O)N(C1CCC(=O)NC1=O)C2=O (stereo not given) [Pomalidomide]
3. CCOC(=O)c1[nH]c2cc(Cl)ccc2c1C(C(=O)NC(C)(C)C)N(C=O)Cc1ccc(Cl)cc1 (stereo not given)
4. C=CC(=O)N1CCC(Oc2cc3c(Nc4ccc(Cl)c(Cl)c4F)ncnc3cc2OC)CC1 [Poziotinib]
5. NS(=O)(=O)C#Cc1ccccc1 [Pifithrin-m]

1: 1.02 (inactive); 2: 1.04 (inactive); 3: 0.971 (inactive); 4: 1 (inactive); 5: 1.04 (inactive)

----------
- System: Kasumi-1
- experimental-protocol: CellTox Green cytotoxicity fluorescence relative to DMSO vehicle (fold of vehicle RFU); higher = more cell death (loss of membrane integrity), active = 2 or more
- study-conditions: 0.1 µM; 24 h
observation-type: CellTox Green cytotoxicity fluorescence
Numbers only.

- CC(=NNC(=S)N1CCC1)c1ccccn1: 0.971
- C=CC(=O)N1CCN(C(=O)CNc2cc(I)c(Cl)cc2O)CC1 [K-Ras(G12C) inhibitor 12]: 1.01
- CC(=O)O/N=C1/C(c2c(O)[nH]c3cc(Br)ccc23)=Nc2ccccc21 [BIO-acetoxime]: 1.02
- N#Cc1ccc(-c2c(-c3ncn[nH]3)sc(N3CCOCC3)c2C#N)c(F)c1: 0.991
- CCCCC(C=O)NC(=O)C(CC(C)C)NC(=O)C(CC(C)C)NC(C)=O (stereo not given): 1.01
- Cn1cc(-c2ccc3c(c2)CCN3C(=O)Cc2cccc(C(F)(F)F)c2)c2c(N)ncnc21: 1.01
- CCOC(=O)c1[nH]c2cc(Cl)ccc2c1C(C(=O)NC(C)(C)C)N(C=O)Cc1ccc(Cl)cc1 (stereo not given): 0.989
- Cc1nn(C)c(COc2ccc(N3CCN(S(=O)(=O)N(C)C)CC3)cc2)c1-c1cccc2c(CCCOc3cccc4ccccc34)c(C(=O)O)n(CCN3CCOCC3)c12: 1.01

Hello, I would appreciate it if you could give CellTox Green cytotoxicity fluorescence for each entry below.
1. CCCCCCCCCCCC1=C(O)C(=O)C=C(O)C1=O [Embelin]
2. Fc1ccc(CNc2ncnc3ccc(F)cc23)cc1 [Spautin-1]

1. 1.01
2. 1
